Where do the numbers come from? From ChEMBL document CHEMBL1146950.

# Test system: NCI-H460
# assayRemarks: Antiproliferative activity against NCI-H460 cell line
# Assay type: functional, Homo sapiens
metric: pGI50 (M)

O=C1c2ccccc2NC(=O)[C@H]2[C@H]1[C@@H](c1cccc(Cl)c1)C[C@]2(O)c1ccccc1 = 5.2
Cc1ccc([C@@]2(O)[C@H](c3ccc(Cl)cc3)C[C@H]3C(=O)c4ccccc4NC(=O)[C@@H]32)cc1 = 5.7
O=C1c2ccccc2NC(=O)[C@H]2[C@H]1C[C@@H](c1ccc(Cl)cc1)[C@]2(O)c1ccccc1 = 5.4
Cc1ccc([C@@]2(O)[C@H](c3ccccc3)C[C@H]3C(=O)c4ccccc4NC(=O)[C@@H]32)cc1 = 4.7
O=C1c2ccccc2NC(=O)[C@H]2[C@H]1[C@@H](c1ccccc1)C[C@]2(O)c1ccc2ccccc2c1 = 6.7
O=C1c2ccccc2NC(=O)[C@H]2[C@H]1C[C@@H](c1ccccc1)[C@]2(O)c1ccccc1 = 5.4
Cc1ccc([C@@H]2C[C@H]3C(=O)c4ccccc4NC(=O)[C@@H]3[C@@]2(O)c2ccccc2)cc1 = 5.1
COc1ccc([C@H]2C[C@](O)(c3ccccc3)[C@H]3C(=O)Nc4ccccc4C(=O)[C@H]23)cc1 = 5.1

* * *

# System: NCI-H460
# assayRemarks: Antiproliferative activity against NCI-H460 cell line
# Type: functional, Homo sapiens
metric: pGI50 (M)

O=C1c2ccccc2NC(=O)[C@H]2[C@H]1[C@@H](c1ccccc1)C[C@]2(O)c1cccc(Cl)c1 = 5.7
O=C1c2ccccc2NC(=O)[C@H]2[C@H]1[C@@H](c1ccc(Cl)cc1)C[C@]2(O)c1ccccc1 = 5
Cc1ccc([C@@H]2C[C@H]3C(=O)c4ccccc4NC(=O)[C@@H]3[C@@]2(O)c2ccc(C)cc2)cc1 = 5.4
COc1ccc([C@H]2C[C@](O)(c3cccc(Cl)c3)[C@H]3C(=O)Nc4ccccc4C(=O)[C@H]23)cc1 = 5
O=C1c2ccccc2NC(=O)[C@H]2[C@H]1[C@@H](c1ccccc1)C[C@]2(O)c1ccc2c(c1)OCO2 = 5.6
COc1ccc([C@@H]2C[C@H]3C(=O)c4ccccc4NC(=O)[C@@H]3[C@@]2(O)c2ccccc2)cc1 = 4.9
O=C1c2ccccc2NC(=O)[C@H]2[C@H]1C[C@@H](c1cccc(Cl)c1)[C@]2(O)c1ccccc1 = 4.6

* * *

# Test system: HOP-62
# assayRemarks: Antiproliferative activity against HOP62 cell line
# Type: functional, Homo sapiens
# Parameters: unit not given here
metric: pGI50
Kindly provide the number alone.

Example entries begin here.
Cc1ccc([C@@H]2C[C@H]3C(=O)c4ccccc4NC(=O)[C@@H]3[C@@]2(O)c2ccccc2)cc1 = 5.6
Cc1ccc([C@@H]2C[C@H]3C(=O)c4ccccc4NC(=O)[C@@H]3[C@@]2(O)c2ccc(C)cc2)cc1 = 5.2

Would you kindly look at the next entry?
Output pGI50 of "Cc1ccc([C@@]2(O)[C@H](c3ccc(Cl)cc3)C[C@H]3C(=O)c4ccccc4NC(=O)[C@@H]32)cc1" 5.3

* * *

# System: HOP-62
# assayRemarks: Antiproliferative activity against HOP62 cell line
# Assay type: functional, Homo sapiens
# Design: unit not given here
Quick reference: pGI50 of the listed items.
Kindly provide the number alone.

O=C1c2ccccc2NC(=O)[C@H]2[C@H]1C[C@@H](c1ccccc1)[C@]2(O)c1ccccc1 = 5.4
O=C1c2ccccc2NC(=O)[C@H]2[C@H]1[C@@H](c1ccccc1)C[C@]2(O)c1ccc2c(c1)OCO2 = 4.1
Cc1ccc([C@@]2(O)[C@H](c3ccccc3)C[C@H]3C(=O)c4ccccc4NC(=O)[C@@H]32)cc1 = 5.4
O=C1c2ccccc2NC(=O)[C@H]2[C@H]1C[C@@H](c1ccc(Cl)cc1)[C@]2(O)c1ccccc1 = 5.6
COc1ccc([C@@H]2C[C@H]3C(=O)c4ccccc4NC(=O)[C@@H]3[C@@]2(O)c2ccccc2)cc1 = 5.6

Output pGI50 of "O=C1c2ccccc2NC(=O)[C@H]2[C@H]1C[C@@H](c1cccc(Cl)c1)[C@]2(O)c1ccccc1" 5.1
